- System: CCRIS mutagenicity, Ames/micronucleus/aberration tests
- assayOverview: CCRIS mutagenicity studies
- conditionNotes: Test System: AMES SALMONELLA TYPHIMURIUM; Strain/Indicator: TA100; Metabolic Activation: RAT, LIVER, S-9, PCB; Method: PREINCUBATION
Activity calls are given as the source filed them. No rule for the calls is given here.
Outcome codes: y (active), n (inactive)

{"recordSmiles": "CCc1nc2ccc(NC)c(C)c2nc1CC", "groupLabel": "y"}
{"recordSmiles": "NCCNCCNCCNCCN", "groupLabel": "n"}
{"recordSmiles": "COc1nncc2ccncc12", "groupLabel": "n"}
{"recordSmiles": "Nc1nc(-c2ccc([N+](=O)[O-])cc2)nc2c1ncn2[C@H]1C[C@H](O)[C@@H](CO)O1", "groupLabel": "y"}
{"recordSmiles": "NCc1cccc(CN)c1", "groupLabel": "n"}
{"recordSmiles": "[N-]=[N+]=NCCC(c1ccccc1)c1ccccc1", "groupLabel": "y"}
{"recordSmiles": "CN(C)CCCN", "groupLabel": "n"}
{"recordSmiles": "COc1ccc(O)c(C(C)(C)C)c1", "groupLabel": "n"}
{"recordSmiles": "COc1ccc2c(c1)c(CC(=O)O)c(C)n2C(=O)c1ccc(Cl)cc1", "groupLabel": "y"}
{"recordSmiles": "Cc1ccc(NN=NCc2ccc([N+](=O)[O-])cc2)cc1", "groupLabel": "y"}
{"recordSmiles": "CC(=O)CN(CC(C)=O)N=O", "groupLabel": "y"}
{"recordSmiles": "C[C@@H]1C[C@]2(O[C@@H]2C)C(=O)O[C@@H]2CCN(C)C/C=C(/COC(=O)[C@]1(C)O)C2=O", "groupLabel": "y"}
{"recordSmiles": "CO[C@H](C)[C@](O)(C(=O)OCC1=CCN2CC[C@H](O)[C@@H]12)C(C)C", "groupLabel": "n"}

====

- Tested on: CCRIS mutagenicity, Ames/micronucleus/aberration tests
- assayOverview: CCRIS mutagenicity studies
- conditionNotes: Test System: AMES SALMONELLA TYPHIMURIUM; Strain/Indicator: TA98; Metabolic Activation: NONE; Method: STANDARD PLATE
Activity calls are given as the source filed them. The rule behind the calls is not given here.
Possible outcomes: y (active), n (inactive)

{"compound": "Cc1ccc2cc3c(c4c2c1CC4)C1NC1c1ccccc1-3 (stereo unspecified)", "groupLabel": "y"}
{"compound": "O=c1ccc2cc3cc4cccc5ccc(c2c1)c3c54", "groupLabel": "n"}
{"compound": "O=[N+]([O-])c1c2c3c(ccc4cccc(c43)CC2)c2ccccc12", "groupLabel": "y"}
{"compound": "CCOCCO", "groupLabel": "n"}
{"compound": "CN(C)N=Nc1ccc(Br)cc1", "groupLabel": "n"}
{"compound": "CCOC(=O)C1=C(C)NC(C)=C(C(=O)OCC2COC3(CCCC3)O2)C1c1cccc(Cl)c1 (stereo unspecified)", "groupLabel": "n"}

====

- Tested on: CCRIS mutagenicity, Ames/micronucleus/aberration tests
- assayOverview: CCRIS mutagenicity studies
- conditionNotes: Test System: AMES SALMONELLA TYPHIMURIUM; Strain/Indicator: TA100; Metabolic Activation: NONE; Method: STANDARD PLATE
Active and inactive are the calls of the source. The rule behind the calls is not given here.

{"recordSmiles": "CN(C)CCCN1c2ccccc2Sc2ccc(Cl)cc21", "mutagenic call": "inactive; negative"}
{"recordSmiles": "CCCCCCNC(=O)n1cc(F)c(=O)[nH]c1=O", "mutagenic call": "inactive; negative"}
{"recordSmiles": "Clc1ccc2c(c1)C(c1ccccc1)=NCc1nncn1-2", "mutagenic call": "inactive; negative"}
{"recordSmiles": "CC(C)CCON=O", "mutagenic call": "inactive; negative"}
{"recordSmiles": "Cc1cc([N+](=O)[O-])c(C)c2c1[nH]c1ccc(O)cc12", "mutagenic call": "inactive; negative"}
{"recordSmiles": "Nc1ncc([N+](=O)[O-])s1", "mutagenic call": "inactive; negative"}
{"recordSmiles": "CCc1cc(C(C)(C)C)c(O)c(C(C)(C)C)c1", "mutagenic call": "inactive; negative"}

====

- Tested on: CCRIS mutagenicity, Ames/micronucleus/aberration tests
- assayOverview: CCRIS mutagenicity studies
- conditionNotes: Test System: AMES SALMONELLA TYPHIMURIUM; Strain/Indicator: TA98; Metabolic Activation: RAT, LIVER, S-9, AROCLOR 1254; Method: STANDARD PLATE
Activity calls are given as the source filed them. How the calls were made is not given here.
Outcome codes: active, inactive

{"compound": "C=CCc1ccc(O)cc1", "groupLabel": "inactive"}
{"compound": "ONc1ccc2c(c1)Cc1ccccc1-2", "groupLabel": "active"}
{"compound": "O=C1c2ccccc2C(=O)c2c(O)c(O)cc(O)c21", "groupLabel": "inactive"}
{"compound": "Nc1ccccc1[N+](=O)[O-]", "groupLabel": "inactive"}
{"compound": "NCCNCCNCCNCCN", "groupLabel": "inactive"}
{"compound": "Cn1c(N)nc2c3cnccc3ccc21", "groupLabel": "active"}
{"compound": "C[C@]12CC[C@H](OC(=O)Cc3ccc(N(CCCl)CCCl)cc3)C[C@@H]1CC[C@@H]1[C@@H]2CC[C@]2(C)NC(=O)CC[C@@H]12", "groupLabel": "inactive"}
{"compound": "CCc1cccc2c3c([nH]c12)C(CC)(CC(=O)O)OCC3 (centres undefined)", "groupLabel": "inactive"}
{"compound": "O=C(OCc1ccc(Cl)cc1)c1cccc2cccnc12", "groupLabel": "inactive"}
{"compound": "Fc1ccccn1", "groupLabel": "active"}
{"compound": "CN(C)CCCCl", "groupLabel": "inactive"}
{"compound": "C1=Cc2cc3ccccc3c3cccc1c23", "groupLabel": "active"}
{"compound": "Oc1ccc2c(O)c3ccccc3cc2c1O", "groupLabel": "inactive"}
{"compound": "CC(C)[C@@H]1CC[C@@H](C)C[C@H]1O", "groupLabel": "inactive"}

====

- Test system: CCRIS mutagenicity, Ames/micronucleus/aberration tests
- assayOverview: CCRIS mutagenicity studies
- conditionNotes: Test System: AMES SALMONELLA TYPHIMURIUM; Strain/Indicator: TA98; Metabolic Activation: RAT, LIVER, S-9, AROCLOR 1254; Method: PREINCUBATION
Activity calls are given as the source filed them. The rule behind the calls is not given here.
Outcomes: active, inactive

{"compound": "N=C(N)c1ccccc1", "groupLabel": "inactive"}
{"compound": "O=C1CCC(=O)O1", "groupLabel": "inactive"}
{"compound": "CC1CCC(C(C)CS)CC1S (stereo not drawn)", "groupLabel": "inactive"}
{"compound": "COc1cc2c(c3oc(=O)c4c(c13)CCC4=O)[C@H]1[C@@H](O2)O[C@@H]2O[C@@H]21", "groupLabel": "active"}
{"compound": "Brc1ccc(-c2ccccc2)cc1", "groupLabel": "inactive"}
{"compound": "O=C1C=CC(=O)C=C1", "groupLabel": "inactive"}
{"compound": "CNc1c(C)cc2ncccc2c1N", "groupLabel": "inactive"}
{"compound": "OCC1CCCO1 (stereo not drawn)", "groupLabel": "inactive"}

====

- Tested on: CCRIS mutagenicity, Ames/micronucleus/aberration tests
- assayOverview: CCRIS mutagenicity studies
- conditionNotes: Test System: MOUSE LYMPHOMA; Strain/Indicator: L5178Y (TK+/TK-); Metabolic Activation: RAT, LIVER, S-9, AROCLOR 1254; Method: SUSPENSION/PLATE
Activity calls are given as the source filed them. No rule for the calls is given here.
resultType: mutagenic call

{"compound": "CC(C)CCON=O", "resultType": "mutagenic call", "valueObserved": "active; positive"}
{"compound": "CCC1(c2ccccc2)C(=O)NC(=O)NC1=O", "resultType": "mutagenic call", "valueObserved": "active; positive"}
{"compound": "ClCC(Br)CBr (centres undefined)", "resultType": "mutagenic call", "valueObserved": "active; positive"}
{"compound": "Nc1ccc(O)c([N+](=O)[O-])c1", "resultType": "mutagenic call", "valueObserved": "active; positive"}
{"compound": "CCOC(=O)NC", "resultType": "mutagenic call", "valueObserved": "active; positive"}
{"compound": "Nc1ccc(N=Nc2ccc3c(c2)C(=O)/C(=N/Nc2ccc(Nc4ccc(N/N=C5/C(=O)c6cc(N=Nc7ccc(N)cc7N)ccc6C=C5S(=O)(=O)O)cc4S(=O)(=O)O)cc2)C(S(=O)(=O)O)=C3)c(N)c1", "resultType": "mutagenic call", "valueObserved": "inactive; negative"}
{"compound": "CC(Br)(CCl)CBr (centres undefined)", "resultType": "mutagenic call", "valueObserved": "inactive; negative"}

====

- Test system: CCRIS mutagenicity, Ames/micronucleus/aberration tests
- assayOverview: CCRIS mutagenicity studies
- conditionNotes: Test System: CHINESE HAMSTER V-79; Strain/Indicator: V-79/8-AZAGUANINE; Metabolic Activation: NONE
Activity calls are given as the source filed them. The rule behind the calls is not given here.
Outcomes: t (active), f (inactive)

{"compound": "COc1cccc2c1C(=O)c1c(O)c3c(c(O)c1C2=O)CC(O)(C(C)=O)CC3O[C@H]1C[C@H](N2CCOCC2)[C@@H](O)C(C)O1 (some centres not stated)", "groupLabel": "t"}
{"compound": "Nc1nc(=O)n([C@H]2C[C@H](O)[C@@H](CO)O2)cc1I", "groupLabel": "f"}
{"compound": "O[C@@H]1[C@@H]2O[C@@H]2c2c(ccc3cc4c(ccc5ccccc54)nc23)[C@H]1O", "groupLabel": "t"}
{"compound": "Nc1nc(=O)n([C@H]2C[C@H](O)[C@@H](CO)O2)cc1CCCl", "groupLabel": "f"}
{"compound": "Cc1cn([C@H]2C[C@H](O)[C@@H](CO)O2)c(=O)[nH]c1=O", "groupLabel": "f"}
{"compound": "CC(C)CCC[C@@H](C)[C@H]1CC[C@H]2[C@@H]3C[C@@H]4O[C@@]45C[C@@H](O)CC[C@]5(C)[C@H]3CC[C@]12C", "groupLabel": "t"}
{"compound": "O=c1[nH]c(=O)n([C@H]2C[C@H](O)[C@@H](CO)O2)cc1I", "groupLabel": "t"}
